system: UO-31 renal; assay: NCI tumour cell line growth inhibition, 48 h
readout_name: TGI (µM)
Write down the numeric answer in µM and omit the unit.

>  <input_smiles>
Cc1ccccc1-n1c(N)c(-c2nc3ccccc3[nH]2)sc1=S

>  <subject_of_test>
UO-31 renal

>  <readout_number>
45.6

$$$$
>  <input_smiles>
CC(=O)/C(=C\c1ccccc1O)C(=O)Nc1ccccc1C

>  <subject_of_test>
UO-31 renal

>  <readout_number>
31

$$$$
>  <input_smiles>
N#Cc1nc(C#N)n(S(=O)(=O)c2ccccc2)c1NS(=O)(=O)c1ccccc1

>  <subject_of_test>
UO-31 renal

>  <readout_number>
79.6

$$$$
>  <input_smiles>
CC(=O)O[C@@H]1C[C@@]2(C)[C@@H]3CC=C4[C@@H](C[C@H](O)C(=O)C4(C)C)[C@]3(C)C(=O)C[C@]2(C)[C@H]1[C@@](C)(O)C(=O)/C=C/C(C)(C)OC(C)=O

>  <subject_of_test>
UO-31 renal

>  <readout_number>
0.881

$$$$
>  <input_smiles>
COc1cc(C(=O)Nc2cc(O)c(CC=C(C)C)c(O)c2)cc2c1O[C@]1(C)CC[C@@H](O)C(C)(C)[C@H]1C2

>  <subject_of_test>
UO-31 renal

>  <readout_number>
4.13

$$$$

Next up:
TGI lookup needed for `COC(=O)c1cc(-c2ccc(OC)c(OC)c2)[nH]c1N/N=C/c1c(Cl)cccc1Cl` , thanks.
3.25

Attribution: PubChem BioAssay (NCI)
